Measured pIC50, listed per entry for reference.
- target-of-assay: recombinant CETP (rCETP) (Homo sapiens, UniProt P11597)
- Sequence (P11597 18-493): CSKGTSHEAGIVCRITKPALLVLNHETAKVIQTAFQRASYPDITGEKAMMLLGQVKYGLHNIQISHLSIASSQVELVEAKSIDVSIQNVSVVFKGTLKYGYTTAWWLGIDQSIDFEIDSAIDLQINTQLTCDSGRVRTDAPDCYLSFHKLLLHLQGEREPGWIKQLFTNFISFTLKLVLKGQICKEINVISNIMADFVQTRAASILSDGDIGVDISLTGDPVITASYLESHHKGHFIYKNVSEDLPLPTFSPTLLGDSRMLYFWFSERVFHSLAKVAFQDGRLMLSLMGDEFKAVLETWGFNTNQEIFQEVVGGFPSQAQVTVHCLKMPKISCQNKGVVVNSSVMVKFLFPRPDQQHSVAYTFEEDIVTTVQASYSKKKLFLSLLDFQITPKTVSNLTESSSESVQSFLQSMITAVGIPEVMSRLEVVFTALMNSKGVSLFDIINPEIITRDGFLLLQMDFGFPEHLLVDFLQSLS
- assay-summary: RTA assay using recombinant CETP (2% RTA)
- Assay type: biochemical
- test-parameters: RTA assay in 2% human serum; read-out: IC50
pIC50: −log10 of the molar value.
attribute-measured: pIC50

molecule | numeric-value
COc1cc(F)c(-c2cnc(C(=O)O)cc2C)cc1-c1cnc(N2CC(F)(F)C2)nc1CN1C(=O)O[C@H](c2cc(C(F)(F)F)cc(C(F)(F)F)c2)[C@@H]1C | 7.85
COc1ccc([C@H]2CC[C@H](C(=O)O)CC2)cc1-c1ccc(N2CCC2)nc1CN1C(=O)O[C@H](c2cc(C(F)(F)F)cc(C(F)(F)F)c2)[C@@H]1C | 8.10
CCOC(=O)c1cc(C)c(-c2ccc(OC)c(-c3ccc(N4CCC4)nc3CN3C(=O)O[C@H](c4cc(C(F)(F)F)cc(C(F)(F)F)c4)[C@@H]3C)c2)n1C | 8.30
COc1cc(F)c(-c2ccc(C(=O)O)cc2C)cc1-c1ccc(N2CCC2)nc1CN1C(=O)O[C@H](c2cc(F)cc(F)c2)[C@@H]1C | 8.15
COc1ccc([C@H]2C[C@H](CC(=O)O)C2)cc1-c1ccc(N2CCC2)nc1CN1C(=O)O[C@H](c2cc(C(F)(F)F)cc(C(F)(F)F)c2)[C@@H]1C | 8.30
Cc1cc(C(=O)O)ccc1-c1cccc(-c2cnc(N3CCC3)nc2CN2C(=O)O[C@H](c3cccc(C(F)(F)F)c3)[C@@H]2C)c1 | 6.22
COc1cc(F)c(CCC(=O)O)cc1-c1c(C)cc(N2CCC2)nc1CN1C(=O)O[C@H](c2cc(C(F)(F)F)cc(C(F)(F)F)c2)[C@@H]1C | 8.30
CCOC(=O)[C@@H]1C[C@H]1c1ccc(OC)c(-c2ccc(N3CCC3)nc2CN2C(=O)O[C@H](c3ccc(F)c(F)c3)[C@@H]2C)c1 | 6.30
COc1ccc(-c2ccc(C(=O)O)cn2)cc1-c1ccc(N2CCC2)nc1CN1C(=O)O[C@H](c2cc(C(F)(F)F)cc(C(F)(F)F)c2)[C@@H]1C | 7.55
COc1cc(F)c(-c2ncc(C(=O)O)cc2Cl)cc1-c1cnc(N2CC(F)(F)C2)nc1CN1C(=O)O[C@H](c2cc(C(F)(F)F)cc(C(F)(F)F)c2)[C@@H]1C | 8.30
COC(=O)[C@@H]1CC[C@@H](c2ccc(OC)c(-c3c(C)cc(N4CCC4)nc3CN3C(=O)O[C@H](c4cc(C(F)(F)F)cc(C(F)(F)F)c4)[C@@H]3C)c2)C1 (mixture of isomers) | 8.05

* * *

- target-of-assay: recombinant CETP (rCETP) (Homo sapiens, UniProt P11597)
- assay-summary: RTA assay using recombinant CETP (2% RTA)
- Format: biochemical
- test-parameters: RTA assay in 2% human serum; read-out: IC50
Below is a list of entries, each paired with its recorded log10 of IC50 value.
attribute-measured: log10 of IC50 (log10 of the value in nM)

compound | attribute-measured | numeric-value
COc1ccc(CC(C)(C)C(=O)OC(C)(C)C)cc1-c1ccc(N2CCC2)nc1CN1C(=O)O[C@H](c2cc(C(F)(F)F)cc(C(F)(F)F)c2)[C@@H]1C [Example 10] | log10 of IC50 | 1.80
COc1ccc([C@H]2CC[C@H](C(N)=O)CC2)cc1-c1ccc(N2CCC2)nc1CN1C(=O)O[C@H](c2cc(C)cc(C)c2)[C@@H]1C [Example 253] | log10 of IC50 | 1.36
COc1c(F)cc(-c2ncc(C(=O)O)cc2Cl)cc1-c1cnc(N2CC(F)(F)C2)nc1CN1C(=O)O[C@H](c2cc(C(F)(F)F)cc(C(F)(F)F)c2)[C@@H]1C [Example 188] | log10 of IC50 | 1.26
COc1ccc(-n2ncc(C(=O)O)c2C(F)(F)F)cc1-c1c(C)cc(N2CCC2)nc1CN1C(=O)O[C@H](c2cc(C(F)(F)F)cc(C(F)(F)F)c2)[C@@H]1C [Example 285] | log10 of IC50 | 0.60
CCc1ccc(-c2ccc(C(=O)O)cc2C)cc1-c1cnc(N2CC(OC)C2)nc1CN1C(=O)O[C@H](c2cc(C(F)(F)F)cc(C(F)(F)F)c2)[C@@H]1C [Example 166] | log10 of IC50 | 1.66

* * *

Quick list: IC50 per entry.
- target-of-assay: recombinant CETP (rCETP) (Homo sapiens)
- assay-summary: RTA assay using recombinant CETP (2% RTA)
- Assay type: biochemical
- test-parameters: RTA assay in 2% human serum; read-out: IC50

smiles-code | IC50, nM
COc1ccc([C@H]2C[C@@H](C(=O)O)C2)cc1-c1c(C)cc(N2CCC2)nc1CN1C(=O)O[C@H](c2cc(C(F)(F)F)cc(C(F)(F)F)c2)[C@@H]1C | 8
COc1ccc(CCC(=O)O)cc1-c1c(C)cc(N2CC(F)(F)C2)nc1CN1C(=O)O[C@H](c2cc(C(F)(F)F)cc(C(F)(F)F)c2)[C@@H]1C | 5
COc1ccc([C@@H]2C[C@H]2C(=O)O)cc1-c1ccc(N2CCC2)nc1CN1C(=O)O[C@H](c2cc(C)cc(C)c2)[C@@H]1C | 38
COc1ccc(C(C)(C)CC(=O)O)cc1-c1cnc(N2CCC2)nc1CN1C(=O)O[C@H](c2cc(C(F)(F)F)cc(C(F)(F)F)c2)[C@@H]1C | 72
COC1CN(c2ncc(-c3cc([C@H]4CC[C@H](C(=O)O)CC4)ccc3Cl)c(CN3C(=O)O[C@H](c4cc(C(F)(F)F)cc(C(F)(F)F)c4)[C@@H]3C)n2)C1 | 771
COc1ccc([C@H]2C[C@@H]2C(=O)O)cc1-c1ccc(N2CCC2)nc1CN1C(=O)O[C@H](c2cc(C(F)(F)F)cc(C(F)(F)F)c2)[C@@H]1C | 9
COc1ccc([C@H]2CC[C@H](C(=O)O)CC2)cc1-c1ccc(N2CCC2)nc1CN1C(=O)O[C@H](c2cc(C)cc(C)c2)[C@@H]1C | 14
COc1ccc(CCCO)cc1-c1ccc(N2CCC2)nc1CN1C(=O)O[C@H](c2cc(C(F)(F)F)cc(C(F)(F)F)c2)[C@@H]1C | 2
COc1cc2c(cc1-c1ccc(N3CCC3)nc1CN1C(=O)O[C@H](c3cc(F)cc(F)c3)[C@@H]1C)[C@H](CC(=O)O)CC2 | 415
COC(=O)CCc1ccc(OC)c(-c2ccc(N3CCC3)nc2CN2C(=O)O[C@H](c3cc(F)cc(F)c3)[C@@H]2C)c1 | 87
COc1ccc(CC(C)(C)C(=O)O)cc1-c1ccc(N2CCC2)nc1CN1C(=O)O[C@H](c2cccc(C(F)(F)F)c2)[C@@H]1C | 145
COc1ccc(CC(C)(C)C(=O)O)cc1-c1ccc(N2CCC2)nc1CN1C(=O)O[C@H](c2cc(C)cc(C)c2)[C@@H]1C | 65
COc1ccc([C@@H]2C[C@H]2C(=O)O)cc1-c1ccc(N2CC(F)(F)C2)nc1CN1C(=O)O[C@H](c2cc(C(F)(F)F)cc(C(F)(F)F)c2)[C@@H]1C | 8
COC(=O)CCc1ccc(OC)c(-c2c(C)nc(N3CC(F)(F)C3)nc2CN2C(=O)O[C@H](c3cc(C(F)(F)F)cc(C(F)(F)F)c3)[C@@H]2C)c1 | 13
C[C@H]1[C@@H](c2cc(F)cc(C(F)(F)F)c2)OC(=O)N1Cc1nc(N2CC(F)(F)C2)ncc1-c1cc([C@H]2CC[C@H](C(=O)O)CC2)ccc1Cl | 49
Cc1cc(C(=O)O)ccc1-c1ccc(C)c(-c2cnc(N3CC(F)(F)C3)nc2CN2C(=O)O[C@H](c3cc(C(F)(F)F)cc(C(F)(F)F)c3)[C@@H]2C)c1 | 6
COc1ccc([C@@H]2C[C@H]2C(=O)O)cc1-c1ccc(N2CCC2)nc1CN1C(=O)O[C@H](c2cccc(C)c2)[C@@H]1C | 267
COC(=O)CCc1ccc(OC2CC2)c(-c2ccc(N3CCC3)nc2CN2C(=O)O[C@H](c3cc(C(F)(F)F)cc(C(F)(F)F)c3)[C@@H]2C)c1 | 14
COc1ccc([C@H]2C[C@H](C(=O)O)C2)cc1-c1c(C)cc(N2CCC2)nc1CN1C(=O)O[C@H](c2cc(C(F)(F)F)cc(C(F)(F)F)c2)[C@@H]1C | 4
COc1ccc(Cc2nc[nH]n2)cc1-c1ccc(N2CCC2)nc1CN1C(=O)O[C@H](c2cc(C(F)(F)F)cc(C(F)(F)F)c2)[C@@H]1C | 23
COc1ccc(-c2csc(C(=O)O)c2OC)cc1-c1ccc(N2CCC2)nc1CN1C(=O)O[C@H](c2cc(C(F)(F)F)cc(C(F)(F)F)c2)[C@@H]1C | 44
COc1ccc(-c2ccc(C(=O)O)cc2C)cc1-c1ccc(N2CCC2)nc1CN1C(=O)O[C@H](c2cccc(C(F)(F)F)c2)[C@@H]1C | 6
COc1ccc(CCC(=O)O)cc1-c1cnc(N2CCC2)nc1CN1C(=O)O[C@H](c2cccc(C(F)(F)F)c2)[C@@H]1C | 2300

Numbers sourced from patent US9221834B2.
